target: Geranylgeranyl transferase type I (Homo sapiens, UniProt P49354+P53609); test: Percent inhibition of Geranylgeranyl transferase type I at 10 uM; type: protein-complex assay
quantityName: inhibition (%)

{"columns": ["compound", "inhibition (%)"],
 "data": [
  ["Brc1ccc(CCN(Cc2ccc(Oc3ccccc3)cc2)Cc2c[nH]cn2)cc1", 88]
]}

I. O=C(O)CC(c1c[nH]cn1)N(CCc1ccc(F)cc1)Cc1c[nH]c(-c2ccccc2)n1 (stereo not drawn)
II. CCCCOc1ccc(S(=O)(=O)N(CCc2ccc(F)cc2)C(CC(=O)O)c2c[nH]cn2)cc1 (stereo not drawn)
Lookup: Compare inhibition: is it lower for I or for II ? Choose, then provide that item's label.
Found: I
